Origin of measurements: paper PMC10150366

assay system: HTR3A (Homo sapiens, UniProt P46098)
Sequence (P46098 24-478): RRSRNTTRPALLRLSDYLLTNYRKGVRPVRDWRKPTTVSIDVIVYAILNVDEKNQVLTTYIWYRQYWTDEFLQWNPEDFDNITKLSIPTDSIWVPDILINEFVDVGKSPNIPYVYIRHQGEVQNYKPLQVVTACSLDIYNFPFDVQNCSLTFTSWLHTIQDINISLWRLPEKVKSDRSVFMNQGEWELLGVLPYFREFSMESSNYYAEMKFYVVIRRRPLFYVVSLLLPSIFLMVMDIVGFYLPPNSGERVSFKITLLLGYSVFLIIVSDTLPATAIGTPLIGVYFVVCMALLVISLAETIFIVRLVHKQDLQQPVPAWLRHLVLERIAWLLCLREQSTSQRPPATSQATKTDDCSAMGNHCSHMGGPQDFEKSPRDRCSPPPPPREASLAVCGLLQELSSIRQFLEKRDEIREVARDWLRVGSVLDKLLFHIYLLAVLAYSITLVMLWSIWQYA
run description: SAFETYscan Ion Channel HTR3A Blocker
pIC50: −log10 of the molar value.
attribute measured: pIC50

Param item = Cn1c(=O)c2c(c3cc(Nc4ccnc(F)c4Cl)ccc31)N[C@@H](C1CC1)C(F)(F)CO2 ; retrieve measured pIC50.
< 5.00
